# ASSAY DETAILS: Serum stability in mouse serum at 37° C.
# Assay type: in vitro ADME
# TEST CONTEXT: mouse serum, 37° C., mono-exponential fit
QUANTITY NAME: Serum τ1/2 (h) mouse
Give just the number in h; leave the unit off.

Which Serum τ1/2 (h) mouse value belongs to C124A/F262L: RLuc mutant C124A/F262L (protein) MASKVYDPEQRKRMITGPQWWARCKQMNVLDSFINYYDSEKHAENAVIFLHGNAASSYLWRHVVPHIEPVARCIIPDLIGMGKSGKSGNGSYRLLDHYKYLTAWFELLNLPKKIIFVGHDWGAALAFHYSYEHQDKIKAIVHAESVVDVIESWDEWPDIEEDIALIKSEEGEKMVLENNFFVETMLPSKIMRKLEPEEFAAYLEPFKEKGEVRRPTLSWPREIPLVKGGKPDVVQIVRNYNAYLRASDDLPKMFIESDPGFLSNAIVEGAKKFPNTEFVKVKGLHFSQEDAPDEMGKYIKSFVERVLKNEQ ?
5.8

***
Which Serum τ1/2 (h) mouse value belongs to E44G/C124A: RLuc mutant E44G/C124A (protein) MASKVYDPEQRKRMITGPQWWARCKQMNVLDSFINYYDSEKHAGNAVIFLHGNAASSYLWRHVVPHIEPVARCIIPDLIGMGKSGKSGNGSYRLLDHYKYLTAWFELLNLPKKIIFVGHDWGAALAFHYSYEHQDKIKAIVHAESVVDVIESWDEWPDIEEDIALIKSEEGEKMVLENNFFVETMLPSKIMRKLEPEEFAAYLEPFKEKGEVRRPTLSWPREIPLVKGGKPDVVQIVRNYNAYLRASDDLPKMFIESDPGFFSNAIVEGAKKFPNTEFVKVKGLHFSQEDAPDEMGKYIKSFVERVLKNEQ ?
2.6
